Data origin, for the record: ChEMBL document CHEMBL2069197

Measurement notes: Aqueous solubility of the compound in phosphate buffered saline after 90 mins by laser nephelometry at pH 4
Type: physicochemical
Outcome: Criterion met for solubility kinetic at 1.5 h of at least 300 µM; Criterion not met for anything lower.

Example entries begin here.
Q: For this molecule, is measured solubility kinetic at 1.5 h 300 µM or higher? C/C(=N\OC(=O)CN(C)C)[C@H]1CC[C@H]2[C@@H]3CCC4=CC(=O)CC[C@]4(C)[C@H]3CC[C@]12C
A: Criterion met

Q: Proceed to C/C(=N\OC(=O)c1cccnc1)[C@H]1CC[C@H]2[C@@H]3CCC4=CC(=O)CC[C@]4(C)[C@H]3CC[C@]12C
A: Criterion not met

Q: What do we get for CC(=O)[C@H]1CC[C@H]2[C@@H]3CCC4=CC(=O)CC[C@]4(C)[C@H]3CC[C@]12C [PROGESTERONE] ?
A: Criterion not met

Q: Follow-up item: C/C(=N\OCCN1CCOCC1)[C@H]1CC[C@H]2[C@@H]3CCC4=CC(=O)CC[C@]4(C)[C@H]3CC[C@]12C
A: Criterion met

Q: Consider next the molecule C/C(=N\OC(=O)[C@H]1CCCNC1)[C@H]1CC[C@H]2[C@@H]3CCC4=CC(=O)CC[C@]4(C)[C@H]3CC[C@]12C.Cl in the same way.
A: Criterion met

# evaluate next
Q: Please tell me: is the molecule C/C(=N\OC(=O)[C@@H]1CCCN1)[C@H]1CC[C@H]2[C@@H]3CCC4=CC(=O)CC[C@]4(C)[C@H]3CC[C@]12C at or over 300 µM in terms of solubility kinetic at 1.5 h?
A: Criterion met

----------
Measurement notes: Half life in human plasma
Type: ADME, cell-free
Endpoint label: half-life (min)
Give bare numbers, in min.

Q: Form field: reported half-life of CC(=O)[C@H]1CC[C@H]2[C@@H]3CCC4=CC(=O)CC[C@]4(C)[C@H]3CC[C@]12C [PROGESTERONE]
A: 25

----------
Task for the reader: assign each of the following compounds its reported solubility kinetic at 1.5 h.
Measurement notes: Aqueous solubility of the compound in phosphate buffered saline after 90 mins by laser nephelometry at pH 7.4
Format: physicochemical
Answers are plain numbers, in µM.

Q: Recorded solubility kinetic at 1.5 h for CC(=O)[C@H]1CC[C@H]2[C@@H]3CCC4=C/C(=N/OC(=O)[C@@H](N)C(C)C)CC[C@]4(C)[C@H]3CC[C@]12C.Cl , please?
A: 172

Q: Follow-up item: C/C(=N\OCCN1CCOCC1)[C@H]1CC[C@H]2[C@@H]3CCC4=CC(=O)CC[C@]4(C)[C@H]3CC[C@]12C
A: 108

Q: Note, next up: CC(=O)O/N=C(\C)[C@H]1CC[C@H]2[C@@H]3CCC4=CC(=O)CC[C@]4(C)[C@H]3CC[C@]12C
A: 100

Q: Same again, this time with C/C(=N\OC(=O)[C@@H]1CCC[N+]1(C)C)[C@H]1CC[C@H]2[C@@H]3CCC4=CC(=O)CC[C@]4(C)[C@H]3CC[C@]12C.[I-]
A: 51

New cases:
Q: Which solubility kinetic at 1.5 h value is on record for C/C(=N\OC(=O)[C@@H]1CCCNC1)[C@H]1CC[C@H]2[C@@H]3CCC4=CC(=O)CC[C@]4(C)[C@H]3CC[C@]12C.Cl ?
A: 428

----------
So I've got a bunch of compounds here, and I need their solubility kinetic at 1.5 h values.
Measurement notes: Aqueous solubility of the compound in phosphate buffered saline after 90 mins by laser nephelometry at pH 7.4
Format: physicochemical
One number for each entry, in µM.

Observe how each entry below is paired with its result.
Q: // lookup solubility kinetic at 1.5 h for C/C(=N\OC(=O)C1CCNCC1)[C@H]1CC[C@H]2[C@@H]3CCC4=CC(=O)CC[C@]4(C)[C@H]3CC[C@]12C.Cl
A: 247

Q: // same read-out, input: C/C(=N\OC(=O)CN1CCN(C)CC1)[C@H]1CC[C@H]2[C@@H]3CCC4=CC(=O)CC[C@]4(C)[C@H]3CC[C@]12C
A: 145

Q: Repeat for the following compound: C/C(=N\OC(=O)C[N+](C)(C)C)[C@H]1CC[C@H]2[C@@H]3CCC4=CC(=O)CC[C@]4(C)[C@H]3CC[C@]12C.[I-]
A: 45

Q: Item: C/C(=N\OC(=O)[C@@H](N)C(C)C)[C@H]1CC[C@H]2[C@@H]3CCC4=CC(=O)CC[C@]4(C)[C@H]3CC[C@]12C.Cl
A: 146

Q: How about C/C(=N\OC(=O)C1CCN(C)CC1)[C@H]1CC[C@H]2[C@@H]3CCC4=CC(=O)CC[C@]4(C)[C@H]3CC[C@]12C ?
A: 108

I need solubility kinetic at 1.5 h for every entry listed below, if you could help.
1. C/C(=N\OC(=O)[C@H]1CCCNC1)[C@H]1CC[C@H]2[C@@H]3CCC4=CC(=O)CC[C@]4(C)[C@H]3CC[C@]12C.Cl
2. C/C(=N\OC(=O)c1ccc[n+](C)c1)[C@H]1CC[C@H]2[C@@H]3CCC4=CC(=O)CC[C@]4(C)[C@H]3CC[C@]12C.[I-]

A:
[314, 212]

----------
Measurement notes: in vivo
Recorded conditions: Sprague-Dawley, rat, plasma, iv, 4 mg/kg
Description: Half life in Sprague-Dawley rat plasma at 4 mg/kg, iv
Endpoint label: half-life (h)
Answers are plain numbers, in h.

Q: Which measured half-life value corresponds to CC(=O)[C@H]1CC[C@H]2[C@@H]3CCC4=C/C(=N/O)CC[C@]4(C)[C@H]3CC[C@]12C ?
A: 2.7

----------
Measurement notes: Stability in cortical neurons assessed as drug metabolism at 5 uM
Assay type: ADME
Recorded conditions: cortical neurone
Endpoint label: Stability

Q: I am curious: what Stability value has been reported for C/C(=N\OC(=O)c1ccc[n+](C)c1)[C@H]1CC[C@H]2[C@@H]3CCC4=CC(=O)CC[C@]4(C)[C@H]3CC[C@]12C.[I-] ?
A: Stable

Q: What do we get for C/C(=N\OC(=O)c1ccc(CN2CCN(C)CC2)cc1)[C@H]1CC[C@H]2[C@@H]3CCC4=CC(=O)CC[C@]4(C)[C@H]3CC[C@]12C ?
A: Stable

Q: One more compound: C/C(=N\O)[C@H]1CC[C@H]2[C@@H]3CCC4=CC(=O)CC[C@]4(C)[C@H]3CC[C@]12C
A: Stable

----------
Measurement notes: Aqueous solubility of the compound in phosphate buffered saline after 90 mins by laser nephelometry at pH 7.4
Type: physicochemical
Endpoint label: solubility kinetic at 1.5 h (µM)
Numbers only, in µM.

Look over these answered cases.
Q: Tell me the measured solubility kinetic at 1.5 h of C/C(=N\OC(=O)CN1CCOCC1)[C@H]1CC[C@H]2[C@@H]3CCC4=CC(=O)CC[C@]4(C)[C@H]3CC[C@]12C , please.
A: 215

Q: Also C/C(=N\OC(=O)[C@@H]1CCCN1)[C@H]1CC[C@H]2[C@@H]3CCC4=CC(=O)CC[C@]4(C)[C@H]3CC[C@]12C , if possible.
A: 34

Please find the next molecule below.
Q: What value of solubility kinetic at 1.5 h has been recorded for this entry: C/C(=N\OC(=O)CN(C)C)[C@H]1CC[C@H]2[C@@H]3CCC4=CC(=O)CC[C@]4(C)[C@H]3CC[C@]12C
A: 171

----------
For each record, write down the corresponding half-life.
Measurement notes: Half life in aqueous media at pH 7
Type: physicochemical
Recorded conditions: aqueous media

For orientation, consider the following solved cases.
Q: Query (molecule): CC(=O)[C@H]1CC[C@H]2[C@@H]3CCC4=C/C(=N/O)CC[C@]4(C)[C@H]3CC[C@]12C ; field requested: half-life
A: > 240 h

Q: // same read-out, input: C/C(=N\OC(=O)CN1CCN(C)CC1)[C@H]1CC[C@H]2[C@@H]3CCC4=CC(=O)CC[C@]4(C)[C@H]3CC[C@]12C
A: 70.6 h

Q: Can you check CC(=O)[C@H]1CC[C@H]2[C@@H]3CCC4=C/C(=N/OC(=O)[C@@H](N)C(C)C)CC[C@]4(C)[C@H]3CC[C@]12C.Cl next?
A: 10.1 h

Q: Input C/C(=N\OCCN1CCOCC1)[C@H]1CC[C@H]2[C@@H]3CCC4=CC(=O)CC[C@]4(C)[C@H]3CC[C@]12C
A: > 240 h

Q: Further, for C/C(=N\OC(=O)[C@H]1CCCNC1)[C@H]1CC[C@H]2[C@@H]3CCC4=CC(=O)CC[C@]4(C)[C@H]3CC[C@]12C.Cl ?
A: 40.8 h

Quick request: half-life for each listed item, please.
1. CC(=O)[C@H]1CC[C@H]2[C@@H]3CCC4=CC(=O)CC[C@]4(C)[C@H]3CC[C@]12C
2. C/C(=N\OC(=O)[C@@H](N)C(C)C)[C@H]1CC[C@H]2[C@@H]3CCC4=CC(=O)CC[C@]4(C)[C@H]3CC[C@]12C.Cl
3. C/C(=N\OC(=O)[C@@H]1CCC[N+]1(C)C)[C@H]1CC[C@H]2[C@@H]3CCC4=CC(=O)CC[C@]4(C)[C@H]3CC[C@]12C.[I-]
4. C/C(=N\OC(=O)C1CCNCC1)[C@H]1CC[C@H]2[C@@H]3CCC4=CC(=O)CC[C@]4(C)[C@H]3CC[C@]12C.Cl
5. CO/N=C(\C)[C@H]1CC[C@H]2[C@@H]3CCC4=CC(=O)CC[C@]4(C)[C@H]3CC[C@]12C
6. C/C(=N\OC(=O)c1ccc[n+](C)c1)[C@H]1CC[C@H]2[C@@H]3CCC4=CC(=O)CC[C@]4(C)[C@H]3CC[C@]12C.[I-]
7. C/C(=N\OC(=O)C1CC[N+](C)(C)CC1)[C@H]1CC[C@H]2[C@@H]3CCC4=CC(=O)CC[C@]4(C)[C@H]3CC[C@]12C.[I-]

A:
1. > 240 h
2. 11.3 h
3. 0.833 h
4. 94.8 h
5. > 240 h
6. 3.1 h
7. 70.6 h

Can you give me half-life for all of these, one by one?
1. C/C(=N\OC(=O)C[N+](C)(C)C)[C@H]1CC[C@H]2[C@@H]3CCC4=CC(=O)CC[C@]4(C)[C@H]3CC[C@]12C.[I-]
2. C/C(=N\OC(=O)[C@@H]1CCCNC1)[C@H]1CC[C@H]2[C@@H]3CCC4=CC(=O)CC[C@]4(C)[C@H]3CC[C@]12C.Cl

A:
["0.933 h", "38.5 h"]
